TEST SUMMARY: In vitro cytotoxicity assay (MTT cell viability) in HepG2 cells
Format: cell-based, human
DETAILS: human
The entries below come with measured CC50 at 7 days values attached.
ATTRIBUTE MEASURED: CC50 at 7 days

{"STRUCTURE STRING": "Cc1cc(NC(=O)c2c(C)c(C(=O)C(=O)NCC(C)(C)CO)n3c2CCCC3)cnc1F", "ENDPOINT RESULT": "5 to 30 µM"}
{"STRUCTURE STRING": "Cc1cc(NC(=O)c2c(C)c(C(=O)C(=O)NCCN)n(C)c2C)ccc1F", "ENDPOINT RESULT": "5 to 30 µM"}
{"STRUCTURE STRING": "Cc1cc(NC(=O)c2c(C)c(C(=O)C(=O)NCC3(N)CCCCC3)n(C)c2C)ccc1F", "ENDPOINT RESULT": "5 to 30 µM"}
{"STRUCTURE STRING": "Cc1cc(NC(=O)c2c(C)c(C(=O)C(=O)NCCc3cccs3)n(C)c2C)ccc1F", "ENDPOINT RESULT": "> 30 µM"}
{"STRUCTURE STRING": "CCn1c(C)c(C(=O)Nc2ccc(F)c(C)c2)c(C)c1C(=O)C(=O)N[C@]1(C)CC[C@@H](O)CC1", "ENDPOINT RESULT": "> 30 µM"}
{"STRUCTURE STRING": "CC(=O)N1CC(C)(NC(=O)C(=O)c2c(C)c(C(=O)Nc3ccc(F)c(C)c3)c(C)n2C)C1", "ENDPOINT RESULT": "> 30 µM"}
{"STRUCTURE STRING": "Cc1nnc(C2(NC(=O)C(=O)c3c(C)c(C(=O)Nc4ccc(F)c(C)c4)c(C)n3CCF)CC2)o1", "ENDPOINT RESULT": "> 30 µM"}
{"STRUCTURE STRING": "CNC(=O)[C@H](NC(=O)C(=O)c1c(C)c(C(=O)Nc2ccc(F)c(C)c2)c(C)n1C)C(C)(C)C", "ENDPOINT RESULT": "> 30 µM"}

###

System: HepG2 cells
TEST SUMMARY: In vitro cytotoxicity assay (MTT cell viability) in HepG2 cells
Assay type: cell-based, human
DETAILS: HepG2 cells, MTT cell viability, 7-day incubation, tested 30 μM to 1.0 nM; read-out: HepG2 CC50

{"COMPOUND": "Cc1c(C(=O)Nc2ccc(F)nc2)c(C)n(C)c1C(=O)C(=O)N[C@]12C[C@@H]3C[C@@H](C[C@H]1C3)C2 [Example 19]", "CC50": "5 to 30 µM"}
{"COMPOUND": "Cc1cc(NC(=O)c2c(C)c(C(=O)C3=Nc4ccccc4B(O)O3)n(C)c2C)ccc1F [Example 256]", "CC50": "5 to 30 µM"}
{"COMPOUND": "Cc1cc(NC(=O)c2c(C)c(C(=O)C(=O)N[C@@H]3[C@@H]4C[C@@H]5C[C@H]3C[C@@](O)(C5)C4)n(C)c2C)ccc1F [Example 74]", "CC50": "> 30 µM"}
{"COMPOUND": "Cc1c(C(=O)Nc2ccc(F)nc2)c(C)n(C)c1C(=O)C(=O)NC12C[C@@H]3C[C@@H](CC(O)(C3)C1)C2 [Example 16]", "CC50": "5 to 30 µM"}

Cited source: patent US20190375708A1
